test system: Panc1 cells; assay: 72-hour dose-response cell viability assay (CellTiter-Glo); format: cell-based; conditions: Homo sapiens, PANC-1, Panc1 PDAC cells
pIC50: −log10 of the molar value.

# Sample smiles, pIC50
rows = [
    ("CCOC(=O)[C@H](Cc1ccccc1)NC(=O)c1cc(Cl)c(OCCN2CCN(C)CC2)c(Cl)c1O", 5.66),
]

----------
system: HPNE cells; experiment: 72-hour dose-response cell viability assay (CellTiter-Glo); type: cell-based; conditions: Homo sapiens, HPNE non-transformed pancreatic epithelial cells

# Sample smiles, Target of assay, IC50, µM
rows = [
    ("CCOC(=O)[C@H](Cc1ccccc1)NC(=O)c1cc(Cl)c(OCCN2CCN(C)CC2)c(Cl)c1O", "HPNE cells", 130),
]
